- TARGET_ENTITY: hERG channel (Homo sapiens, UniProt Q12809)
- Construct: expressed in transfected cells; host or cells: CHO (Chinese hamster ovary)
- Sequence (Q12809 whole entry): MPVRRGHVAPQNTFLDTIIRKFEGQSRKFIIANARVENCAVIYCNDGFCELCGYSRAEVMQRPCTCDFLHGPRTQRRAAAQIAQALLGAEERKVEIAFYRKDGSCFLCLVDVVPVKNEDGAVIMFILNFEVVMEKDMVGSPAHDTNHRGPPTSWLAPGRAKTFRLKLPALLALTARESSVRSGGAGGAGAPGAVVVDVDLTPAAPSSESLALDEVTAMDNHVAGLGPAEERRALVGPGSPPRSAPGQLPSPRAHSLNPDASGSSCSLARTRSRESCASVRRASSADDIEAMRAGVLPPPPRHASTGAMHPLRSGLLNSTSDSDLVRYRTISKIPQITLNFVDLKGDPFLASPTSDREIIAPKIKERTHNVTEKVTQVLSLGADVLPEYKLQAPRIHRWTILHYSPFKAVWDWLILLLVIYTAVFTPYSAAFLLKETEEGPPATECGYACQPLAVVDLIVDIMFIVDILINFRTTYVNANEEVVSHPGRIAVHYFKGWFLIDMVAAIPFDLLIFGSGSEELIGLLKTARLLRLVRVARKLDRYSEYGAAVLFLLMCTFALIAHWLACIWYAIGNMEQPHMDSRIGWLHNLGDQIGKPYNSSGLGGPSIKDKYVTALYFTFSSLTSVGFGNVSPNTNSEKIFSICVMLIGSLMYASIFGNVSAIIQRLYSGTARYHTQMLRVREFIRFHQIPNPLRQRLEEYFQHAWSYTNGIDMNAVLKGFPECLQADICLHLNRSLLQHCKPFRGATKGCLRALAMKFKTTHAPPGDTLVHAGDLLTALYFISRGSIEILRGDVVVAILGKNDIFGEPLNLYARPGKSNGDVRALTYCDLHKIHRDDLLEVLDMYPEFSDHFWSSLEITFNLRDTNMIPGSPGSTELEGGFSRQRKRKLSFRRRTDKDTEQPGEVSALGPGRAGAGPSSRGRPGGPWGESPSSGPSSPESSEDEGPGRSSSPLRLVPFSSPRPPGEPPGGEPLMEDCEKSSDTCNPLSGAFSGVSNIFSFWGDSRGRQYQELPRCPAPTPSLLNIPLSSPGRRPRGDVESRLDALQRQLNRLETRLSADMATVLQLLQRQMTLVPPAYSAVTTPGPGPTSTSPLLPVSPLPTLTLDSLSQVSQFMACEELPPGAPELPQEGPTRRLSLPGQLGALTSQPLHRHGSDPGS
- PROCEDURE_DETAILS: hERG channel inhibition assay (patch-clamp, CHO hERG cells)
- Assay type: cell-based
- EXPERIMENTAL_SETUP: safety ratio; TLR9 IC50 of ER compounds from Table 1
METRIC: hERG IC20 / TLR9 IC50

The cases that follow already have their hERG IC20 / TLR9 IC50 on record.
> print(dat)
                                   compound                             target.entity  readout.value
1  C[C@@H]1CN(c2ccc(C#N)c3ncccc23)C[C@H](CN2CCN(c3ccc4c(c3)CCNC4)CC2)O1  hERG channel (Homo sapiens, UniProt Q12809)         >156.0
2  C[C@@H]1CN(c2ccc(C#N)c3ncccc23)C[C@H](CN2CCN(c3cc4c(cn3)CCN[C@@H]4C)CC2)O1 (single isomer, unassigned)  hERG channel (Homo sapiens, UniProt Q12809)         >112.1
3  C[C@@H]1CN(c2ccc(C#N)c3ncccc23)C[C@H](CN2CCN(c3cnc4c(c3)CNCC4)CC2)O1  hERG channel (Homo sapiens, UniProt Q12809)         >193.8

[Q] Please tell me the measured hERG IC20 / TLR9 IC50 for `C[C@@H]1CN(c2ccc(C#N)c3nccnc23)C[C@H](CN2CCN(c3cnc4c(c3)CNC4)CC2)O1` ; system: hERG channel (Homo sapiens, UniProt Q12809).
[A] >111.7

[Q] Please tell me the measured hERG IC20 / TLR9 IC50 for `C[C@@H]1CN(c2ccc(C#N)c3ncccc23)C[C@H](CN2CCN(c3ccc4c(n3)CNC4)CC2)O1` ; system: hERG channel (Homo sapiens, UniProt Q12809).
[A] >246.3

[Q] Please tell me the measured hERG IC20 / TLR9 IC50 for `C[C@@H]1CN(c2ccc(C#N)c3ncccc23)C[C@H](CN2CCN(c3cnc4c(c3)CCNC4)CC2)O1` ; system: hERG channel (Homo sapiens, UniProt Q12809).
[A] >170.1

[Q] Please tell me the measured hERG IC20 / TLR9 IC50 for `C[C@@H]1CN(c2ccc(C#N)c3ncccc23)C[C@H](CN2CCN(c3ccc4c(c3)CN(CCO)C4)CC2)O1` ; system: hERG channel (Homo sapiens, UniProt Q12809).
[A] >110.4

[Q] Please tell me the measured hERG IC20 / TLR9 IC50 for CC1NCc2ncc(N3CCN(C[C@H]4CN(c5ccc(C#N)c6ncccc56)C[C@@H](C)O4)CC3)cc21 (some centres unmarked) ; system: hERG channel (Homo sapiens, UniProt Q12809).
[A] >166.7
